# credit: patent US7517998B2

This listing pairs molecules with measured IC50.
# Tgt: K103NNY181C mutant reverse transcriptase (Human immunodeficiency virus type 1 group M subtype B, UniProt P04585, K690N/Y768C)
# Construct: mutations that occur in the reverse transcriptase segment of the pol gene
# Assay Summary: Reverse transcriptase enzymatic assay (PicoGreen), K103N/Y181C mutant RT
# Type: biochemical, HIV-1
# Protocol Conditions: IC50 mut, K103N/Y181C mutant reverse transcriptase, enzymatic assay of Example 24
Value expressed in nM; do not type the unit.

CC(C)(C#Cc1ccc(NC(=O)CSc2nnnn2-c2cc(C(F)(F)F)ccc2Cl)c(Cl)c1)NC(=O)C1CC1	51
CN(O)C(=O)COC(C)(C)C#Cc1ccc(NC(=O)CSc2nnnn2-c2ccc(C(C)(C)C)cc2Cl)c(Cl)c1	66
CN(C)CCCNC(=O)C(C)(C)C#Cc1ccc(NC(=O)CSc2nnnn2-c2ccc(C3CC3)cc2Cl)c(Cl)c1	48

In: # lookup: IC50 of `CC(C)(C#Cc1ccc(NC(=O)CSc2nnnn2-c2cc(C(C)(C)C)cc(Br)c2Cl)c(Cl)c1)NC(=O)CN1CCC(C(=O)O)CC1`
Out: 52

In: # lookup: IC50 of `Cc1cc(C)c(-n2nnnc2SCC(=O)Nc2ccc(C#CC(C)(C)O)cc2Cl)c(Cl)c1`
Out: 38

In: # lookup: IC50 of `CC(C)(C#Cc1ccc(NC(=O)CSc2nnnn2-c2cc(C(F)(F)F)cc(Cl)c2Cl)c(Cl)c1)NC(=O)c1cc[n+]([O-])cc1`
Out: 15.5

In: # lookup: IC50 of `CC(C)(C#Cc1ccc(NC(=O)CSc2nnnn2-c2cc(C(F)(F)F)cc(C3CC3)c2Cl)c(Cl)c1)OCCN1CCNCC1`
Out: 718

###

# Tgt: K103NNY181C mutant reverse transcriptase (Human immunodeficiency virus type 1 group M subtype B, UniProt P04585, K690N/Y768C)
# Construct: mutations that occur in the reverse transcriptase segment of the pol gene
# Assay Summary: Reverse transcriptase enzymatic assay (PicoGreen), K103N/Y181C mutant RT
# Assay type: biochemical, HIV-1
# Protocol Conditions: IC50 mut, mutant reverse transcriptase, enzymatic assay of Example 24
pIC50: −log10 of the molar value.
Rule: criterion met for pIC50 not less than 7, criterion not met for anything less.

In: Reported pIC50 at or above 7? CC(C)(C)c1ccc(-n2nnnc2SCC(=O)Nc2ccc(C(=O)NC(CO)C(=O)O)cc2Cl)c(Cl)c1 (centres unmarked) [Compound 6018]
Out: criterion met

In: Reported pIC50 at or above 7? Cc1nnc(SCC(=O)Nc2ccc(-c3ccc(OCC(=O)O)cc3)cc2Cl)n1-c1ccc(C(C)(C)C)cc1Cl [Compound 1001]
Out: criterion met

In: Reported pIC50 at or above 7? O=C(COc1ccc(NC(=O)CSc2nnnn2-c2ccc(C3CC3)cc2Cl)c(Cl)c1)NCCc1cccc[n+]1[O-] [Compound 5038]
Out: criterion not met

In: Reported pIC50 at or above 7? CSCCC(NC(=O)c1ccc(NC(=O)CSc2nnnn2-c2ccc(C(C)(C)C)cc2Cl)c(Cl)c1)C(=O)O (centres unmarked) [Compound 6025]
Out: criterion met

In: Reported pIC50 at or above 7? CC(C)(C#Cc1ccc(NC(=O)CSc2nnc(C(F)(F)F)n2-c2ccc(C3CC3)cc2Cl)c(Cl)c1)NC(=O)c1cc[n+]([O-])cc1 [Compound 1018]
Out: criterion met

In: Reported pIC50 at or above 7? CC(C)(C)c1ccc(-n2nnnc2SCC(=O)Nc2ccc(C(=O)Nc3ccncc3)cc2Cl)c(Cl)c1 [Compound 6029]
Out: criterion met

In: Reported pIC50 at or above 7? CC(C)(NC(=O)c1ccc(NC(=O)CSc2nnnn2-c2ccc(C3CC3)cc2Cl)c(Cl)c1)C(=O)O [Compound 6033]
Out: criterion not met

In: Reported pIC50 at or above 7? Cc1ccc(-n2nnnc2SCC(=O)Nc2ccc(-c3c[nH]cn3)cc2Cl)c(Cl)c1 [Compound 3018]
Out: criterion not met

In: Reported pIC50 at or above 7? CCN(CC)CCOc1ccc(-c2ccc(NC(=O)CSc3nnnn3-c3ccc(C(C)(C)C)cc3Cl)c(Cl)c2)cc1 [Compound 2024]
Out: criterion met

In: Reported pIC50 at or above 7? Cc1nnc(SCC(=O)Nc2ccc(C#CC(C)(C)COC(N)=O)cc2Cl)n1-c1ccc(C2CC2)cc1Cl [Compound 1011]
Out: criterion met

In: Reported pIC50 at or above 7? CC(C)(C)c1ccc(-n2nnnc2SCC(=O)Nc2ccc(C(=O)Nc3cccc(C(=O)O)c3)cc2Cl)c(Cl)c1 [Compound 6021]
Out: criterion met

###

# Tgt: K103NNY181C mutant reverse transcriptase (Human immunodeficiency virus type 1 group M subtype B, UniProt P04585, K690N/Y768C)
# Construct: mutations that occur in the reverse transcriptase segment of the pol gene
# Assay Summary: Reverse transcriptase enzymatic assay (PicoGreen), K103N/Y181C mutant RT
# Type: biochemical, HIV-1
# Protocol Conditions: IC50 mut, mutant reverse transcriptase, enzymatic assay of Example 24
IC50 strictly under 70 nM means Yes; at 70 nM or over means No.

The examples below pair each entry with its known result.
Cc1ccc(-n2nnnc2SCC(=O)Nc2ccc(-c3cccc(CC(=O)O)c3)cc2Cl)c(Cl)c1 [Compound 3004]	No
CC(C)(C)c1ccc(-n2nnnc2SCC(=O)Nc2ccc(C(=O)N3CCOCC3)cc2Cl)c(Cl)c1 [Compound 6005]	No
Cc1cc(C)c(-n2nnnc2SCC(=O)Nc2ccc(-c3ccc(CC(=O)O)cc3)cc2Cl)c(Cl)c1 [Compound 2021]	Yes
CC(C)(C)c1ccc(-n2nnnc2SCC(=O)Nc2ccc(-c3ccc(S(C)(=O)=O)cc3)cc2Cl)c(Cl)c1 [Compound 2027]	Yes
Cc1ccc(-n2nnnc2SCC(=O)Nc2ccc(-c3coc(C)n3)cc2Cl)c(Cl)c1 [Compound 3017]	No
CC(C)(C)c1ccc(-n2nnnc2SCC(=O)Nc2ccc(C(=O)Nc3ccc(N4CCOCC4)cc3)cc2Cl)c(Cl)c1 [Compound 6006]	Yes

In: Determine if Cc1ccc(-n2nnnc2SCC(=O)Nc2ccc(-c3cccc(C(=O)O)c3)cc2Cl)c(Cl)c1 [Compound 3003] shows IC50 strictly lower than 70 nM.
Out: No

In: Determine if CC(C)(C)c1ccc(-n2nnnc2SCC(=O)Nc2ccc(OCC(=O)Nc3ccccc3C(=O)O)cc2Cl)c(Cl)c1 [Compound 5010] shows IC50 strictly lower than 70 nM.
Out: No

In: Determine if Cc1ccc(-n2nnnc2SCC(=O)Nc2ccc(-c3cscn3)cc2Cl)c(Cl)c1 [Compound 3014] shows IC50 strictly lower than 70 nM.
Out: No

###

This listing pairs compounds with measured log10 IC50.
# Tgt: K103NNY181C mutant reverse transcriptase (Human immunodeficiency virus type 1 group M subtype B, UniProt P04585, K690N/Y768C)
# Construct: mutations that occur in the reverse transcriptase segment of the pol gene
# Assay Summary: Reverse transcriptase enzymatic assay (PicoGreen), K103N/Y181C mutant RT
# Format: biochemical, HIV-1
# Protocol Conditions: IC50 mut, mutant reverse transcriptase, enzymatic assay of Example 24
Note: values are log10 of IC50 expressed in nM.

Cc1ccc(-n2nnnc2SCC(=O)Nc2ccc(-c3ccc(CC(=O)O)cc3)cc2Cl)c(Cl)c1 [Compound 2004]	1.68
CC(C)(C)c1ccc(-n2nnnc2SCC(=O)Nc2ccc(OCC(=O)Nc3ccc(CC(=O)O)cc3)cc2Cl)c(Cl)c1 [Compound 5023]	1.58
Cc1ccc(-n2nccc2SCC(=O)Nc2ccc(-c3ccc(CC(=O)O)cc3)cc2Cl)c(Cl)c1 [Compound 1004]	2.62

In: # lookup: log10 IC50 of CC(C)(C)c1ccc(-n2nnnc2SCC(=O)Nc2ccc(-c3ncc[nH]3)cc2Cl)c(Cl)c1 [Compound 3029]
Out: 1.88

In: # lookup: log10 IC50 of Cc1nnc(SCC(=O)Nc2ccc(-c3ccc(OCCN4CCCC4)cc3)cc2Cl)n1-c1ccc(C2CC2)cc1Cl [Compound 1014]
Out: 1.91

###

This listing pairs compounds with measured log10 IC50.
# Tgt: K103NNY181C mutant reverse transcriptase (Human immunodeficiency virus type 1 group M subtype B, UniProt P04585, K690N/Y768C)
# Construct: mutations that occur in the reverse transcriptase segment of the pol gene
# Assay Summary: Reverse transcriptase enzymatic assay (PicoGreen), K103N/Y181C mutant RT
# Format: biochemical, HIV-1
# Protocol Conditions: IC50 mut, K103N/Y181C mutant reverse transcriptase, enzymatic assay of Example 24
# Procedure: The enzymatic assay employed is described as follows: The reverse transcriptase (RT) enzyme assay has been adapted to a 96-well microtiter plate format and uses PicoGreen™ as a fluorescent intercalator. […] The plate was then analyzed using a POLARstar Galaxy fluorometer (BMG Labtechnologies) with λex and λem of 485 nm and 520 nm respectively. Each well was read for 1.25 second. […]
Note: values are log10 of IC50 expressed in µM.

CC(C)(C#Cc1ccc(NC(=O)CSc2nnnn2-c2ccc(C3CC3)cc2Cl)c(Cl)c1)NCC1CC1 [Compound 4128]	-1.57
CC(C)(C#Cc1ccc(NC(=O)CSc2nnnn2-c2ccc(C(C)(C)C)cc2Cl)c(Cl)c1)COC(N)=O [Compound 4033]	-1.44
CC(C)(C#Cc1ccc(NC(=O)CSc2nnnn2-c2ccc(C3CC3)cc2Cl)c(Cl)c1)NC(=O)c1cnccn1 [Compound 4111]	-2.07
CC(C)(C#Cc1ccc(NC(=O)CSc2nnnn2-c2ccc(C3CC3)cc2Cl)c(Cl)c1)NC(=O)OC(C)(C)C [Compound 4069]	-0.95
CCCC#Cc1ccc(NC(=O)CSc2nnnn2-c2ccc(C(C)(C)C)cc2Cl)c(Cl)c1 [Compound 4009]	-2.05

In: # lookup: log10 IC50 of CC(C)(C#Cc1ccc(NC(=O)CSc2nnnn2-c2cc(F)ccc2Cl)c(Cl)c1)C(=O)O [Compound 4212]
Out: -0.44

In: # lookup: log10 IC50 of CC(C)(C#Cc1ccc(NC(=O)CSc2nnnn2-c2cc(C(C)(C)C)cc(Br)c2Cl)c(Cl)c1)NC(=O)c1cc[n+]([O-])cc1 [Compound 4223]
Out: -1.52

In: # lookup: log10 IC50 of O=C(CSc1nnnn1-c1ccc(C2CC2)cc1Cl)Nc1ccc(C#CC(O)(C(F)(F)F)C(F)(F)F)cc1Cl [Compound 4249]
Out: -0.69

In: # lookup: log10 IC50 of CC(C)(C#Cc1ccc(NC(=O)CSc2nnnn2-c2ccc(C3CC3)cc2Cl)c(Cl)c1)NS(C)(=O)=O [Compound 4076]
Out: -1.76

In: # lookup: log10 IC50 of CC(C)(C)c1ccc(-n2nnnc2SCC(=O)Nc2ccc(C#CCCCOC(N)=O)cc2Cl)c(Cl)c1 [Compound 4061]
Out: -1.80

In: # lookup: log10 IC50 of CC(C)(C#Cc1ccc(NC(=O)CSc2nnnn2-c2ccc(C3CC3)cc2Cl)c(Cl)c1)NC(=O)CN1CCC(C(=O)O)CC1 [Compound 4154]
Out: -1.98

In: # lookup: log10 IC50 of CC(C)c1ccc(-n2nnnc2SCC(=O)Nc2ccc(C#CC(C)(C)C(=O)O)cc2Cl)c(Cl)c1 [Compound 4121]
Out: -1.47

In: # lookup: log10 IC50 of CC(C)(C#Cc1ccc(NC(=O)CSc2nnnn2-c2ccc(C3CC3)cc2Cl)c(Cl)c1)NC(=O)c1csnn1 [Compound 4107]
Out: -1.82

In: # lookup: log10 IC50 of CCC(N)(C#Cc1ccc(NC(=O)CSc2nnnn2-c2ccc(C3CC3)cc2Cl)c(Cl)c1)CC [Compound 4068]
Out: -1.41

In: # lookup: log10 IC50 of CN(C)c1ccc(Cl)c(-n2nnnc2SCC(=O)Nc2ccc(C#CC(C)(C)C(=O)O)cc2Cl)c1 [Compound 4243]
Out: -0.85

In: # lookup: log10 IC50 of CC(C)(O)C#Cc1ccc(NC(=O)CSc2nnnn2-c2cc3c(cc2Cl)CCC3)c(Cl)c1 [Compound 4065]
Out: -1.87

In: # lookup: log10 IC50 of CC(C)(C#Cc1ccc(NC(=O)CSc2nnnn2-c2ccc(C3CC3)cc2Cl)c(Cl)c1)NC(=O)c1ccccc1 [Compound 4106]
Out: -1.72

In: # lookup: log10 IC50 of O=C(CSc1nnnn1-c1ccc(C2CC2)cc1Cl)Nc1ccc(C#CCCN2CCNCC2)cc1Cl [Compound 4135]
Out: -1.54

In: # lookup: log10 IC50 of CN1CCC[C@H]1C(=O)NC(C)(C)C#Cc1ccc(NC(=O)CSc2nnnn2-c2ccc(C3CC3)cc2Cl)c(Cl)c1 [Compound 4110]
Out: -1.94
